We begin with a simple list: items and their reported binding signal.
# measurement-target: POU1 (OCT1 POU domain);BOB1 (OBF1, OCA-B) (human;human, UniProt P14859;Q16633 260-458;1-256, |)
# Sequence (P14859 260-458, chain 1 of 2): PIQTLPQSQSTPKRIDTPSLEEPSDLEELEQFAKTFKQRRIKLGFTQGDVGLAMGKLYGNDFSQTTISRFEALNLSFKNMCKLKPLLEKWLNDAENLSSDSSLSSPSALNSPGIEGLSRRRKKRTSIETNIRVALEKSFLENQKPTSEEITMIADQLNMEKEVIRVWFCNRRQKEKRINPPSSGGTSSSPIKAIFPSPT
# Sequence (Q16633 whole entry, chain 2 of 2, the tested form may be a part): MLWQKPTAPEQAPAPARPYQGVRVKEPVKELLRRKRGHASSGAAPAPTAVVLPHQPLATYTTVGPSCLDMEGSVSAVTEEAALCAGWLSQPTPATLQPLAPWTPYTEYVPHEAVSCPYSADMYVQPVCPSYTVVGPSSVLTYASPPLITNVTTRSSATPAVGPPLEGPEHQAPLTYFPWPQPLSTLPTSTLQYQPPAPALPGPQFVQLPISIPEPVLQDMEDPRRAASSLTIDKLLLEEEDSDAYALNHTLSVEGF
# assay-summary: EMSA-SELEX-seq; with BOB1 (ternary complex band); 20 mM Tris-HCl pH 7.6, 140 mM NaCl, 10% glycerol, 0.5 mM EDTA, 0.05% Triton X-100, 0.1 mg/mL BSA, 0.1 mg/mL poly(dI-dC), 5 mM DTT, room temperature, 20 min; high values mean tight binding
# conditions: protein: recombinant;recombinant; copies: 1;1; dsDNA, one strand shown

residue-string: AGATAAAG
binding signal: 0.0359 % of ANNNNAAN 8-mers
--
residue-string: AAACGAAT
binding signal: 0.0675 % of ANNNNAAN 8-mers
--
residue-string: AACGAAAT
binding signal: 0.0675 % of ANNNNAAN 8-mers
--
residue-string: ATATGAAG
binding signal: 0.0691 % of ANNNNAAN 8-mers
--
residue-string: ACCGTAAA
binding signal: 0.0226 % of ANNNNAAN 8-mers
--
residue-string: ATTGCAAT
binding signal: 0.0523 % of ANNNNAAN 8-mers
--
residue-string: ATCACAAC
binding signal: 0.0222 % of ANNNNAAN 8-mers
--
residue-string: AATTAAAT
binding signal: 0.19 % of ANNNNAAN 8-mers
--
residue-string: AGGCTAAG
binding signal: 0.0312 % of ANNNNAAN 8-mers
--
residue-string: ACCTAAAG
binding signal: 0.0219 % of ANNNNAAN 8-mers
--
residue-string: AGCCTAAA
binding signal: 0.0191 % of ANNNNAAN 8-mers
--
residue-string: AGGACAAG
binding signal: 0.0297 % of ANNNNAAN 8-mers
--
residue-string: AATAGAAT
binding signal: 0.0921 % of ANNNNAAN 8-mers
--
residue-string: ATGTGAAC
binding signal: 0.0367 % of ANNNNAAN 8-mers
--
residue-string: ATCTGAAA
binding signal: 0.0472 % of ANNNNAAN 8-mers
--
residue-string: ATGGCAAA
binding signal: 0.113 % of ANNNNAAN 8-mers
--
residue-string: ATTTTAAG
binding signal: 0.0964 % of ANNNNAAN 8-mers
--
residue-string: AAGTTAAC
binding signal: 0.0355 % of ANNNNAAN 8-mers
--
residue-string: ACTCTAAC
binding signal: 0.0187 % of ANNNNAAN 8-mers
--
residue-string: ATGCAAAG
binding signal: 2.22 % of ANNNNAAN 8-mers
--
residue-string: AGTCAAAC
binding signal: 0.122 % of ANNNNAAN 8-mers
--
residue-string: AAAACAAC
binding signal: 0.0609 % of ANNNNAAN 8-mers

----------
We begin with a simple list: items and their reported binding signal.
# measurement-target: POU1 (OCT1 POU domain) (human, UniProt P14859 260-458)
# Sequence (P14859 260-458): as the sequence (P14859 260-458, chain 1 of 2) above
# assay-summary: EMSA-SELEX-seq; no BOB1; 20 mM Tris-HCl pH 7.6, 140 mM NaCl, 10% glycerol, 0.5 mM EDTA, 0.05% Triton X-100, 0.1 mg/mL BSA, 0.1 mg/mL poly(dI-dC), 5 mM DTT, room temperature, 20 min; high values mean tight binding
# conditions: protein: recombinant; dsDNA, one strand shown

residue-string: ACTTAAAT
binding signal: 0.0767 % of ANNNNAAN 8-mers

residue-string: ACCAGAAC
binding signal: 0.013 % of ANNNNAAN 8-mers

residue-string: ACCCGAAT
binding signal: 0.0233 % of ANNNNAAN 8-mers

residue-string: ATCCGAAG
binding signal: 0.0275 % of ANNNNAAN 8-mers

residue-string: ATACCAAG
binding signal: 0.0252 % of ANNNNAAN 8-mers

residue-string: AGTCGAAT
binding signal: 0.061 % of ANNNNAAN 8-mers

residue-string: AATCGAAA
binding signal: 0.0622 % of ANNNNAAN 8-mers

residue-string: ACTATAAC
binding signal: 0.0156 % of ANNNNAAN 8-mers

residue-string: ACCGTAAG
binding signal: 0.0191 % of ANNNNAAN 8-mers

residue-string: AATTGAAT
binding signal: 0.203 % of ANNNNAAN 8-mers

residue-string: ATTGGAAA
binding signal: 0.0927 % of ANNNNAAN 8-mers

residue-string: ATTGGAAG
binding signal: 0.0309 % of ANNNNAAN 8-mers

residue-string: ATCAGAAA
binding signal: 0.0446 % of ANNNNAAN 8-mers

residue-string: ATCGCAAC
binding signal: 0.0126 % of ANNNNAAN 8-mers

residue-string: ACGTCAAA
binding signal: 0.0271 % of ANNNNAAN 8-mers

residue-string: ATCCGAAT
binding signal: 0.0542 % of ANNNNAAN 8-mers

residue-string: AGTACAAG
binding signal: 0.029 % of ANNNNAAN 8-mers

residue-string: ATTTCAAT
binding signal: 0.238 % of ANNNNAAN 8-mers

residue-string: AAAGCAAT
binding signal: 0.05 % of ANNNNAAN 8-mers

residue-string: AGCTCAAA
binding signal: 0.0252 % of ANNNNAAN 8-mers

residue-string: ATCACAAG
binding signal: 0.0225 % of ANNNNAAN 8-mers

residue-string: ATAGTAAA
binding signal: 0.12 % of ANNNNAAN 8-mers

residue-string: ACGTTAAC
binding signal: 0.024 % of ANNNNAAN 8-mers

residue-string: ATAGGAAC
binding signal: 0.0339 % of ANNNNAAN 8-mers

residue-string: ATGAAAAT
binding signal: 0.373 % of ANNNNAAN 8-mers

residue-string: ACCTGAAT
binding signal: 0.0583 % of ANNNNAAN 8-mers

residue-string: AACGTAAC
binding signal: 0.0179 % of ANNNNAAN 8-mers

residue-string: AATACAAT
binding signal: 0.0797 % of ANNNNAAN 8-mers

residue-string: AATCCAAA
binding signal: 0.0507 % of ANNNNAAN 8-mers

residue-string: ATAACAAA
binding signal: 0.098 % of ANNNNAAN 8-mers

residue-string: AAACCAAG
binding signal: 0.0233 % of ANNNNAAN 8-mers

residue-string: ATGTAAAT
binding signal: 3.45 % of ANNNNAAN 8-mers

residue-string: ACTAGAAG
binding signal: 0.0229 % of ANNNNAAN 8-mers

residue-string: AACATAAT
binding signal: 0.134 % of ANNNNAAN 8-mers

residue-string: AAAATAAC
binding signal: 0.0782 % of ANNNNAAN 8-mers

residue-string: ATAAGAAT
binding signal: 0.114 % of ANNNNAAN 8-mers

residue-string: AGAACAAG
binding signal: 0.0221 % of ANNNNAAN 8-mers

residue-string: ACTGCAAC
binding signal: 0.0114 % of ANNNNAAN 8-mers

residue-string: ACTACAAC
binding signal: 0.0122 % of ANNNNAAN 8-mers

residue-string: ATGCGAAT
binding signal: 0.124 % of ANNNNAAN 8-mers

residue-string: ATTGTAAT
binding signal: 0.312 % of ANNNNAAN 8-mers

residue-string: AGCCCAAA
binding signal: 0.0164 % of ANNNNAAN 8-mers

residue-string: AGTGTAAA
binding signal: 0.0576 % of ANNNNAAN 8-mers

residue-string: AGGAAAAC
binding signal: 0.0591 % of ANNNNAAN 8-mers

residue-string: ACCGGAAC
binding signal: 0.0137 % of ANNNNAAN 8-mers

residue-string: ATACTAAA
binding signal: 0.0648 % of ANNNNAAN 8-mers
